I'd be grateful if you could share measured MC3R selectivity (relative to MC4R) for these entries.
# ASSAYED_TARGET: human MC3R (human, UniProt P41968 1-323)
# Sequence (P41968 whole entry): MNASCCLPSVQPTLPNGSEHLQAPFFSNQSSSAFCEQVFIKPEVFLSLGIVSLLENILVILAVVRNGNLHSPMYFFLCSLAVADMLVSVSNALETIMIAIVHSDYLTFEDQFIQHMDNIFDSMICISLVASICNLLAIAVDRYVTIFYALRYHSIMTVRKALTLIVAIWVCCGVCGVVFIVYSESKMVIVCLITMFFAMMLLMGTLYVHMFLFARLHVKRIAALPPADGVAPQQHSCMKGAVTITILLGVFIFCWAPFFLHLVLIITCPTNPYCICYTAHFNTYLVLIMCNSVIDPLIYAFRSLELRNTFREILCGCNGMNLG
# TEST_METHOD_NOTES: cell-based or functional assay
Non-standard residues stand in square brackets, D forms with d. Phe(4-I) = N[C@@H](Cc1ccc(I)cc1)C(=O)O; Nle = CCCC[C@H](N)C(=O)O; dAbu = CC[C@@H](N)C(=O)O; Aib = CC(C)(N)C(=O)O

Prompt: Need MC3R selectivity (relative to MC4R) of Ac-YVE[dAbu]H[Phe(4-I)]R[dW]DRFG-OH (SMILES CC[C@@H](NC(=O)[C@H](CCC(=O)O)NC(=O)[C@@H](NC(=O)[C@H](Cc1ccc(O)cc1)NC(C)=O)C(C)C)C(=O)N[C@@H](Cc1c[nH]cn1)C(=O)N[C@@H](Cc1ccc(I)cc1)C(=O)N[C@@H](CCCNC(=N)N)C(=O)N[C@H](Cc1c[nH]c2ccccc12)C(=O)N[C@@H](CC(=O)O)C(=O)N[C@@H](CCCNC(=N)N)C(=O)N[C@@H](Cc1ccccc1)C(=O)NCC(=O)O) [CTX-1194] , thanks.
Completion: 49

Prompt: Any idea what its MC3R selectivity (relative to MC4R) is? The binder is H-YV[Nle][Aib]HFR[dW]D-NH2 (SMILES CCCC[C@H](NC(=O)[C@@H](NC(=O)[C@@H](N)Cc1ccc(O)cc1)C(C)C)C(=O)NC(C)(C)C(=O)N[C@@H](Cc1c[nH]cn1)C(=O)N[C@@H](Cc1ccccc1)C(=O)N[C@@H](CCCNC(=N)N)C(=O)N[C@H](Cc1c[nH]c2ccccc12)C(=O)N[C@@H](CC(=O)O)C(N)=O) [CTX-1130]
Completion: 58
